Entry source: ChEMBL document CHEMBL3046382

The compounds listed here are annotated with their mortality at 100 mg/kg.
Test system: Mythimna separata
Experiment: Stomach toxicity in fourth-instar Mythimna separata (Oriental armyworm) larvae in compound treated corn leaves assessed as mortality at 100 mg/kg measured after 4 days
Format: functional
Conditions: 96 h

compound	test-system	measurement-unit	mortality at 100 mg/kg
Cc1c(C(=O)NN(C(=O)c2cccc([N+](=O)[O-])c2)C(C)(C)C)ccc2c1CC(C)(C)O2	Mythimna separata	%	0
Cc1c(C(=O)NN(C(=O)c2cccc(Cl)c2)C(C)(C)C)ccc2c1CC(C)O2 (centres undefined)	Mythimna separata	%	100
COc1ccc(C(=O)N(NC(=O)c2ccc3c(c2C)CC(C)(C)O3)C(C)(C)C)cc1	Mythimna separata	%	0
Cc1c(C(=O)NN(C(=O)c2ccc([N+](=O)[O-])cc2)C(C)(C)C)ccc2c1CC(C)(C)O2	Mythimna separata	%	0
Cc1c(C(=O)NN(C(=O)c2ccccc2)C(C)(C)C)ccc2c1CC(C)(C)O2	Mythimna separata	%	10
Cc1c(C(=O)NN(C(=O)c2ccccc2Cl)C(C)(C)C)ccc2c1CC(C)(C)O2	Mythimna separata	%	0
Cc1cc(C)cc(C(=O)N(NC(=O)c2ccc3c(c2C)CC(C)O3)C(C)(C)C)c1 (centres undefined)	Mythimna separata	%	100
Cc1c(C(=O)NN(C(=O)c2ccc(Cl)cc2)C(C)(C)C)ccc2c1CC(C)(C)O2	Mythimna separata	%	10
Cc1c(C(=O)NN(C(=O)c2ccc(Cl)cc2Cl)C(C)(C)C)ccc2c1CC(C)O2 (centres undefined)	Mythimna separata	%	100

###

The compounds listed here are annotated with their LC50.
Tested on: Ostrinia nubilalis
Experiment: Stomach toxicity in Ostrinia nubilalis (European corn borer) in compound treated corn leaves assessed as mortality measured after 4 days by leaf-dip method
Format: functional
Settings: Ostrinia nubilalis, 96 h

compound	test-system	LC50 / µg/mL
Cc1cc(C)cc(C(=O)N(NC(=O)c2ccc3c(c2C)OC(C)C3)C(C)(C)C)c1 (centres undefined)	Ostrinia nubilalis	25.6
Cc1cc(C)cc(C(=O)N(NC(=O)c2ccc3c(c2C)CC(C)O3)C(C)(C)C)c1 (centres undefined)	Ostrinia nubilalis	40.5
Cc1cc(C)cc(C(=O)N(NC(=O)c2ccc3c(c2Cl)CCCO3)C(C)(C)C)c1	Ostrinia nubilalis	55.6
Cc1cc(C)cc(C(=O)N(NC(=O)c2ccc3c(c2C)CCCO3)C(C)(C)C)c1 [CHROMAFENOZIDE]	Ostrinia nubilalis	18.6

###

System: Culicidae
Experiment: Toxicity against fourth-instar larvae of Culex pipiens pallens assessed as mortality at 0.5 mg/kg measured after 7 to 10 days
Format: functional

molecule	test-system	mortality at 0.5 mg/kg
Cc1c(C(=O)NN(C(=O)c2cc([N+](=O)[O-])cc([N+](=O)[O-])c2)C(C)(C)C)ccc2c1CC(C)O2 (stereo not given)	Culicidae	10%
Cc1c(C(=O)NN(C(=O)c2cc(Cl)cc(Cl)c2)C(C)(C)C)ccc2c1CC(C)O2 (stereo not given)	Culicidae	0%
Cc1c(C(=O)NN(C(=O)c2ccccc2Cl)C(C)(C)C)ccc2c1CC(C)O2 (stereo not given)	Culicidae	10%
Cc1cccc(C(=O)N(NC(=O)c2ccc3c(c2C)CC(C)(C)O3)C(C)(C)C)c1	Culicidae	10%
Cc1cc(C)cc(C(=O)N(NC(=O)c2ccc3c(c2C)OC(C)C3)C(C)(C)C)c1 (stereo not given)	Culicidae	50%
COc1cccc(C(=O)N(NC(=O)c2ccc3c(c2C)CC(C)(C)O3)C(C)(C)C)c1	Culicidae	10%
Cc1c(C(=O)NN(C(=O)c2cccc(Cl)c2)C(C)(C)C)ccc2c1CC(C)O2 (stereo not given)	Culicidae	10%
Cc1c(C(=O)NN(C(=O)c2ccccc2[N+](=O)[O-])C(C)(C)C)ccc2c1CC(C)O2 (stereo not given)	Culicidae	0%
Cc1cc(C)cc(C(=O)N(NC(=O)c2ccc3c(c2C)CCCO3)C(C)(C)C)c1 [CHROMAFENOZIDE]	Culicidae	10%
Cc1c(C(=O)NN(C(=O)c2cc(Cl)cc(Cl)c2)C(C)(C)C)ccc2c1CC(C)(C)O2	Culicidae	10%
Cc1c(C(=O)NN(C(=O)c2ccccc2Cl)C(C)(C)C)ccc2c1CC(C)(C)O2	Culicidae	0%
COc1ccccc1C(=O)N(NC(=O)c1ccc2c(c1C)CC(C)(C)O2)C(C)(C)C	Culicidae	0%
Cc1c(C(=O)NN(C(=O)c2ccc(Cl)cc2)C(C)(C)C)ccc2c1CC(C)(C)O2	Culicidae	0%
Cc1c(C(=O)NN(C(=O)c2cccc([N+](=O)[O-])c2)C(C)(C)C)ccc2c1CC(C)(C)O2	Culicidae	10%
Cc1c(C(=O)NN(C(=O)c2cccc([N+](=O)[O-])c2)C(C)(C)C)ccc2c1CC(C)O2 (stereo not given)	Culicidae	0%
